- subject.of.test: SARS-CoV-2 spike protein receptor binding domain (RBD) (SARS-CoV-2, UniProt P0DTC2 319-539)
- test.name: ELISA on coated RBD protein
quantity.name: log10 of EC50 (log10 of the value in ng/mL)
Kindly note that the scale is log10 and the underlying EC50 is in ng/mL.

Identify the reported log10 of EC50 for the following entry. C519 (antibody, V domains shown) VH: QVQLQESGPGLVKPSETLSLTCAVSGGSISSYYWSWIRQPPGKGLEWIGYIDTSGSTNYNPSLKSRVTMSVDTSKNQFSLNVNSVTAADTAVYFCGVCAGDCYAASVFDYRGQGTLVTVSS VL: DIQMTQSPSSLSASVGDRVTITCQASQDIIFYLNWYQQKPGKAPKLLIYDASNLKTGVPSRFSGSGSGTDFAFTISSLQPEDIATYYCQQYDNLPLTFGGGTKVEIK
0.03

Identify the reported log10 of EC50 for the following entry. C063 (antibody, V domains shown) VH: EVQLVQSGAEVKKPGDSLKISCKASGYSFTRYWIGWVRQMPGKGLDWMGIIYPGDSDTRYSSSFQGQVTISADKSISTAYLQWSSLKASDTSLYYCVRRASSTNFEFWGQGTLVTVSS VL: SYELTQPPSVSVAPGQTATITCGGNNIGSKTVHWYQQKPGQAPVVVVYDDSDRPSGIPERFSGSKSGSTATLTITRVEAGDEADYYCQVWDSTSDHYVFGTGTKVAVI
2.62

Identify the reported log10 of EC50 for the following entry. C053 (antibody, V domains shown) VH: EVQLVESGGGLIQPGGSLRLSCAASGFIVSNNYMSWVRQAPGKGLDWVSVIYSGGTTYYADSVKGRFTISRDNSKNTLYLQMNSLRAEDTAVYYCAREGDVEGYHDSWSGYSRDRYYFDYWGQGTLVTVSS VL: QSALTQPASVSGSPGQSITISCTGSSSDVGGYNFVSWYQQHPGRAPKLMIYDVSNRPSGVSNRFSGSKSGNTASLTISGLQVEDEADYYCSSYTNNNTRVFGTGTKVTVL
0.18
